B1: library; a variant is named by its letters at N, in order (parent)
chain: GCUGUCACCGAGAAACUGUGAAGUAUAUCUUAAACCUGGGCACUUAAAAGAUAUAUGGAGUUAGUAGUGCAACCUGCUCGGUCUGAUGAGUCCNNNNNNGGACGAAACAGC

Variants of: B1
Test Name: normalized RNA/DNA level with ligand (relative to sTRSVctl = 100) (log10 (% of sTRSVctl)); HEK293T; ligand: cyclic di-GMP (c-di-GMP-II aptamer); ligand concentration (+) RNA-Seq: 1 mM; higher = less ribozyme self-cleavage, higher mRNA level
Run Parameters: reporter: mCherry (pCS4076), ligand present: yes
Metric Name: normalized RNA/DNA level with ligand (log10)

1) GUUAAA ... 1.7
2) ACUUUC ... 1.85
3) CUUCAA ... 1.64
4) CUUACU ... 1.79
5) CUAGGU ... 1.85
6) UUCUUU ... 1.9
7) AACAAC ... 1.75
8) AACACU ... 1.81
9) CGUAUA ... 1.45
10) GGCUGA ... 1.71
11) GCUUGC ... 1.87
